Assay: Compound cytotoxicity, XTT-based colorimetric assay
Type: cell-based
Conditions: human; uninfected MT2 cells, day 4, XTT
Reported metric: CC50 at 4 days

Please review the entries below; each comes with its answer.
{"Compound": "Cn1nc(NS(C)(=O)=O)c2c(Cl)ccc(-n3c([C@H](Cc4cc(F)cc(F)c4)NC(=O)Cn4nc(C(F)F)c5c4C(F)(F)[C@@H]4C[C@H]54)nc4cc(-c5nccnc5C(F)(F)F)ccc4c3=O)c21 (atropisomer, axis not shown; (P)) [Example 23]", "Reported result": "> 100 nM"}
{"Compound": "Cn1nc(NS(C)(=O)=O)c2c(Cl)ccc(-n3c([C@H](Cc4cc(F)cc(F)c4)NC(=O)Cn4nc(C(F)(F)F)c5c4C(F)(F)[C@@H]4C[C@H]54)nc4cc(-c5ccn(CC(C)(F)F)n5)ccc4c3=O)c21 (atropisomer, axis not shown; (P)) [Example 66]", "Reported result": "> 100 nM"}
{"Compound": "COc1nc(C)cc(-c2ccc3c(=O)n(-c4ccc(Cl)c5c(NS(C)(=O)=O)nn(C)c45)c([C@H](Cc4cc(F)cc(F)c4)NC(=O)Cn4nc(C(F)F)c5c4C(F)(F)[C@@H]4C[C@H]54)nc3c2)n1 (atropisomer, axis not shown; (P)) [Example 16]", "Reported result": "> 500 nM"}

Now look at this entry.
Exam item: Requested read-out: CC50 at 4 days. Entry: Cn1nc(NS(C)(=O)=O)c2c(Cl)ccc(-n3c([C@H](Cc4cc(F)cc(F)c4)NC(=O)Cn4nc(C(F)F)c5c4C(F)(F)[C@@H]4C[C@H]54)nc4cc(-c5ccc6ncsc6c5)ccc4c3=O)c21 (atropisomer, axis not shown; (P)) [Example 44]
Marked response: > 100 nM
